Experiment: Plasma concentration after intravaginal administration of vaginal ring
Assay type: in vivo, Cynomolgus monkeys
Details: female, cynomolgus monkey, plasma, other: intravaginal (vaginal ring), 40 mg, ring 40 mg free base; Phase 1 Group 1; 4 d; individual animals; read-out: Plasma concentration of Pritelivir free base
Method: The study was performed in four single dose phases with 28-day sampling period after Phases 1 and 2 (7-day washout period between doses). […] After suitable dilution, plasma and vaginal samples were analyzed on UPLC system Waters Acquity UPLC-HSS PFP column with 1.8 μm particles (100×2.1 mm) by gradient elution using 0.1% formic acid and methanol containing 0.1% formic acid. […] The samples were analyzed for their content of Pritelivir free base. […]
parameter: concentration at 4 d

> print(dat)
                                   molecule  valueobserved
1  Cc1nc(N(C)C(=O)Cc2ccc(-c3ccccn3)cc2)sc1S(N)(=O)=O [Pritelivir free base]     3.21 ng/mL

---

test: Plasma concentration after intravaginal administration of vaginal ring; assay type: in vivo, Cynomolgus monkeys; conditions: female, cynomolgus monkey, plasma, other: intravaginal (vaginal ring), 40 mg, ring 40 mg free base; Phase 1 Group 1; 0.0417 d; individual animals; read-out: Plasma concentration of Pritelivir free base
parameter: concentration at 0.0417 d (ng/mL)

> print(dat)
                                   compound  valueobserved
1  Cc1nc(N(C)C(=O)Cc2ccc(-c3ccccn3)cc2)sc1S(N)(=O)=O [Pritelivir free base]           2.44

---

test: Plasma concentration after intravaginal administration of vaginal ring; assay type: in vivo, Cynomolgus monkeys; conditions: female, cynomolgus monkey, plasma, other: intravaginal (vaginal ring), 240 mg, ring 240 mg free base; Phase 2 Group 1; 24 d; individual animals; read-out: Plasma concentration of Pritelivir free base
parameter: concentration at 24 d (ng/mL)

> print(dat)
                                   compound  valueobserved
1  Cc1nc(N(C)C(=O)Cc2ccc(-c3ccccn3)cc2)sc1S(N)(=O)=O [Pritelivir free base]           9.71

---

experiment: Plasma concentration after intravaginal administration of vaginal ring; type: in vivo, Cynomolgus monkeys; conditions: female, cynomolgus monkey, plasma, other: intravaginal (vaginal ring), 40 mg, ring 40 mg free base; Phase 1 Group 1; 0.167 d; individual animals; read-out: Plasma concentration of Pritelivir free base
parameter: concentration at 0.167 d (ng/mL)

> print(dat)
                                   compound  unitstring  valueobserved
1  Cc1nc(N(C)C(=O)Cc2ccc(-c3ccccn3)cc2)sc1S(N)(=O)=O [Pritelivir free base]       ng/mL           2.38

---

assay: Plasma concentration after intravaginal administration of vaginal ring; assay type: in vivo, Cynomolgus monkeys; conditions: female, cynomolgus monkey, plasma, other: intravaginal (vaginal ring), 240 mg, ring 240 mg free base; Phase 2 Group 1; 4 d; individual animals; read-out: Plasma concentration of Pritelivir free base
parameter: concentration at 4 d (ng/mL)

> print(dat)
                                   compound  valueobserved
1  Cc1nc(N(C)C(=O)Cc2ccc(-c3ccccn3)cc2)sc1S(N)(=O)=O [Pritelivir free base]             26

---

test: Plasma concentration after intravaginal administration of vaginal ring; format: in vivo, Cynomolgus monkeys; conditions: female, cynomolgus monkey, plasma, other: intravaginal (vaginal ring), 40 mg, ring 40 mg free base; Phase 1 Group 1; 14 d; individual animals; read-out: Plasma concentration of Pritelivir free base
parameter: concentration at 14 d (ng/mL)

> print(dat)
                                   compound  valueobserved
1  Cc1nc(N(C)C(=O)Cc2ccc(-c3ccccn3)cc2)sc1S(N)(=O)=O [Pritelivir free base]           2.81
